Cited source: ChEMBL document CHEMBL1201862

Tested on: SK-MEL-2
Test: NCI tumour cell line growth inhibition, 48 h
The source made the active and inactive calls. Cut-off read from the data, not from the text of the source: active = GI50 up to about 1.1 µM and inactive = higher.
Please state which outcome applies, choosing from yes for active, no for inactive

What is the recorded call for this molecule in the test? COC(=O)/C=C(/C(=O)OC)C1(C)c2cc(C(=O)OC)c(C(=O)OC)c(N)c2C(=N)N1c1ccccc1 (centres undefined) no

Dear colleague, could you share the recorded outcome for CC(C)(C)OC(=O)NC(Cc1c[nH]cn1)C(=O)N1CCCC1C(N)=O (centres undefined) when you have a moment? no

What call does the record list for "NC1=C(Br)C(=O)c2ncccc2C1=O" ? yes

Check the results log: what was the call for CC1=NN(c2cccc(Cl)c2)C2(C1=Cc1cccs1)C(Cl)C(=O)N2c1nc2ccccc2s1 (centres undefined) ? no

Each molecule tested received a call. Report the one for "O=C(NC(O)(C(F)(F)F)C(F)(F)F)c1ccccc1" . no

Hi, do you know how "N/C(=N\O)N/N=C/c1ccc(C(F)(F)F)cc1" came out in this test? no
